target: neutral endopeptidase of cultivated human fibroblast (Homo sapiens); construct: followed by ultrasonic pulverization, whereby an enzyme solution was obtained; host or cells: normal human fibroblasts, Triton X-100 lysate after sonication; assay: Inhibition test on neutral endopeptidase activity of cultivated human fibroblast; assay type: biochemical; details: concentration 0.1 mM; enzyme solution from human fibroblast, substrate glutaryl-Ala-Ala-Phe-4-methoxy-2-naphthylamine
Sequence (P08473 whole entry): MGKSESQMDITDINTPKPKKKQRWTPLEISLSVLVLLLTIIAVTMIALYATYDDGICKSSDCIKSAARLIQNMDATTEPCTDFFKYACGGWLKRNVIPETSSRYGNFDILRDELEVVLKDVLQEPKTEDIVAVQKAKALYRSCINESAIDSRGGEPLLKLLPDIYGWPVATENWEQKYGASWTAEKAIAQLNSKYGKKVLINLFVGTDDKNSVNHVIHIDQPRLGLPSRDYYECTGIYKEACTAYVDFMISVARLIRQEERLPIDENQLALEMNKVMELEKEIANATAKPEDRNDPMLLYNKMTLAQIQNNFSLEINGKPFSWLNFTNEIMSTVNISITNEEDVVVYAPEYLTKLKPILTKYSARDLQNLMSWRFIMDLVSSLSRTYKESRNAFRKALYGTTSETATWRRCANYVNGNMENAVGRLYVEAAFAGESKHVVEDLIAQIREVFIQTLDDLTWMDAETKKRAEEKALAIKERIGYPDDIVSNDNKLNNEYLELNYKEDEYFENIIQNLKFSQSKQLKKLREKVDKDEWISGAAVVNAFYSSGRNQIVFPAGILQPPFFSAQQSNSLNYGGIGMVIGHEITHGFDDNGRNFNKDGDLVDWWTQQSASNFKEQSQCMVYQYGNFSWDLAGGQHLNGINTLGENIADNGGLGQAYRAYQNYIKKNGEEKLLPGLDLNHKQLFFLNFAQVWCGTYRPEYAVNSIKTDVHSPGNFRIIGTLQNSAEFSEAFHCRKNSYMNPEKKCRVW
quantity kind: inhibition at 100 µM (%)

# compound, assay target, inhibition at 100 µM (%)
measured = [
    ("CCOC(=O)CNC(=O)C(Cc1ccccc1)C(=O)OCC (stereo not shown)", "neutral endopeptidase of cultivated human fibroblast (Homo sapiens)", 74.5),
    ("CCOC(=O)CNC(=O)C(Cc1ccc(-c2ccccc2)cc1)C(=O)OCC (stereo not shown)", "neutral endopeptidase of cultivated human fibroblast (Homo sapiens)", 85.7),
    ("O=C(O)CCNC(=O)C(Cc1ccccc1)C(=O)O (stereo not shown)", "neutral endopeptidase of cultivated human fibroblast (Homo sapiens)", 69.5),
    ("O=C(O)CNC(=O)C(Cc1ccccc1)C(=O)O (stereo not shown)", "neutral endopeptidase of cultivated human fibroblast (Homo sapiens)", 91.2),
]

The measured values listed here are drawn from patent US7211278B2.
